# assayed system: UniProt:P22607
# Sequence (P22607 23-806 limits assumed): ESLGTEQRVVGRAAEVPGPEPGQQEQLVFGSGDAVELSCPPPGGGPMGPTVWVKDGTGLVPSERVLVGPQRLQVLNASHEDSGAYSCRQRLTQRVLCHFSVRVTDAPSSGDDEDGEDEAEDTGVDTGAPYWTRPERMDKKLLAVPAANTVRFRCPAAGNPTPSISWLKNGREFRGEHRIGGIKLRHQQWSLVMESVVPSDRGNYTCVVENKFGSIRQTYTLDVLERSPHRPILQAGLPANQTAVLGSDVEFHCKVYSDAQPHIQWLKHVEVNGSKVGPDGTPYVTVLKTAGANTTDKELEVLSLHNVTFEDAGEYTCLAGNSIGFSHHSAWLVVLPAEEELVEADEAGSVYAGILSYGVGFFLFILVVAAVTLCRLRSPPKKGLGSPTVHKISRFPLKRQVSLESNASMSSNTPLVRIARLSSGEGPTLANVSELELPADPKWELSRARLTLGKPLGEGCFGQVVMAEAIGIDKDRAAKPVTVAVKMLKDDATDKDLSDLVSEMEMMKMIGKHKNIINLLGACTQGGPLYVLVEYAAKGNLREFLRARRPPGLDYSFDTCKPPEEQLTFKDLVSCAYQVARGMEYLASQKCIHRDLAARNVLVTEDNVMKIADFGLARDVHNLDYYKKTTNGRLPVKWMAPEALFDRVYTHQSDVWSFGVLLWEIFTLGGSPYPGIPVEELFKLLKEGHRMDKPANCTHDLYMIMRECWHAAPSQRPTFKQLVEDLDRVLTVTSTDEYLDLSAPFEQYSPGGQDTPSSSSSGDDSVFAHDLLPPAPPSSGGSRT
# measurement context: Compound concentration 20.0 uM, Protein concentration 2.0 uM, Result type QC Liability
# Description: Thermal Shift Assay. Domain: start/stop: P449-E759
Binned ΔTm; ranges: low end = under 0.5 °C, middle = from 0.5 °C up to 0.9 °C, high end = 0.9 °C and over

Here are 2 molecules together with their reported answers.
molecule=CO[C@H](C)CN1CC[C@]2(C)c3cccc(O)c3C[C@H]1C2(C)C discrete_label="low end"
molecule=CN(C)[C@H]1CC[C@H](Nc2ncc3ncnc(Nc4ccc(F)c(Cl)c4)c3n2)CC1 discrete_label=middle

Pending molecule:
Form field 'band' for CN(C)C/C=C/C(=O)Nc1ccc(C(=O)Nc2cccc(Nc3ncc(Cl)c(-c4c[nH]c5ccccc45)n3)c2)cc1
high end

The reported measurements were obtained from ChEMBL document CHEMBL5308504.
